Data provenance is ChEMBL document CHEMBL4265918.

target: Free fatty acid receptor 1 (Homo sapiens); experiment: Agonist activity at recombinant human GPR40 expressed in HEK293 cells assessed as increase in intracellular calcium flux at 10 uM measured for 120 secs by calcium-5 dye based assay relative to 30 uM linolenic acid; assay type: functional, cell-based
Sequence (O14842 whole entry): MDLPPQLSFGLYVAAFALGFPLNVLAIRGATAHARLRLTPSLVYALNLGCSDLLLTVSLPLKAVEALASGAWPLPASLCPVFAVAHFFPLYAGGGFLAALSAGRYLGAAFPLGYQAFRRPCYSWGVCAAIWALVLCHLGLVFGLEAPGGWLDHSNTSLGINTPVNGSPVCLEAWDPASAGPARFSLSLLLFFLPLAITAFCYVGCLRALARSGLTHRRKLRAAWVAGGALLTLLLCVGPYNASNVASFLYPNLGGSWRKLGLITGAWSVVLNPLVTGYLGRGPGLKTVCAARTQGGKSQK
Emax values by entry
Response body: numeric value in %, unit text excluded.

Worked set:
Cc1cccc(C)c1-c1cccc(COc2ccc(C#CC(=O)O)cc2)c1 : 90
O=C(O)C#Cc1ccc(OCc2cccc(-c3ccccc3OC(F)(F)F)c2)cc1 : 100
CC/C=C\C/C=C\C/C=C\CCCCCCCC(=O)O [LINOLENIC ACID] : 100

**Q:** Requested read-out: Emax. Entry: O=C(O)C#Cc1ccc(OCc2cccc(Oc3ccccc3)c2)cc1
**A:** 65

**Q:** Requested read-out: Emax. Entry: Cc1ccccc1-c1cccc(COc2ccc(C#CC(=O)O)cc2)c1
**A:** 90
